experiment: chemical genetic growth profiling, strain panel (AID 1159580);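 also: tested at 20 µM; growth read once vehicle control cultures reached saturation at 30 °C; 1 = growth at the plate median or of vehicle wells; lower values mean less growth of the strain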; details: S. cerevisiae deletion strains, growth OD, locus YIL147C, strain SLN1
In all, about 5,500 compounds went through this assay and about 2,000 (36%) were called active. Roughly 18% stayed inconclusive and do not appear here. Rule as the data show it: active = normalized growth mostly below about 0.91 (no sharp cut-off); inconclusive = no clear call, values can overlap the other calls; inactive = mostly above about 0.92. The list shows a part of the results.
Field 'call' accepts active, inactive

O=C(NNc1ccc(I)cc1)c1cc(Cl)cc(Cl)c1 : inactive

Lookup: Could you kindly confirm the outcome this assay logged for `Cc1ccc(NS(=O)(=O)c2ccc(-c3csc(C)n3)s2)c(C)c1` ?
Found: inactive

Lookup: Could you kindly confirm the outcome this assay logged for OC(CN1CCN(c2nc3ccc(Cl)cc3s2)CC1)Cn1ccc2ccccc21 (stereo not drawn) ?
Found: inactive

Lookup: Could you kindly confirm the outcome this assay logged for `Cc1ccc(NC(=O)c2ccccc2N=Cc2cc(Cl)cc(Cl)c2O)c(N=Cc2cc(Cl)cc(Cl)c2O)c1` ?
Found: inactive

Lookup: Could you kindly confirm the outcome this assay logged for `OC(=Cc1nc2ccccc2nc1C=C(O)c1ccc(Cl)cc1)c1ccc(Cl)cc1` ?
Found: inactive

----------
Collected normalized growth values appear next to each entry.
assay: chemical genetic growth profiling, strain panel (AID 1159580); details: S. cerevisiae deletion strains, growth OD, locus YEL003W, strain gim4, active compounds read low
The campaign covered roughly 5,500 compounds. About 2,000 (36%) were called active. Inconclusive results (about 18%) are left out. The list shows a part of the results.
Enter the number alone.

In the examples that follow, each entry is paired with its recorded normalized growth.
CCOC(=O)[C@H](CCc1ccccc1)N[C@@H](C)C(=O)N1[C@H](C(=O)O)C[C@@H]2CCC[C@@H]21 : 0.981
Oc1ccc(Cl)cc1 : 1.01
C=C1CCC2C(CC2(C)C)C(=C)CC/C1=N\O (centres undefined) : 1
Cc1ccc(Cl)c(Nc2ccccc2C(=O)O)c1Cl : 0.904
C=C1CCC(C2CC(=O)OC2=O)C(=O)CCC2C1CC2(C)C (centres undefined) : 1.01
C=CC(N)CCC(=O)O (centres undefined) : 0.996
Oc1ccc(Cl)cc1Cc1cc(Cl)ccc1O : 0.0565
NS(=O)(=O)c1cc2c(cc1Cl)NC(C(Cl)Cl)NS2(=O)=O (centres undefined) : 0.976

Lookup: Which value of normalized growth has been reported for `O=C(O)CN(CC(=O)O)Cc1cc2c(-c3ccccc3C(=O)O)c3cc(CN(CC(=O)O)CC(=O)O)c(=O)cc-3oc2cc1O` in the records?
Found: 0.948

Lookup: Which value of normalized growth has been reported for `O=c1cc(-c2ccccc2O)oc2cc(O)ccc12` in the records?
Found: 0.968

Lookup: Which value of normalized growth has been reported for CCCCCCCCCCCCCCCC(=O)OC1C(SC)OC(C(NC(=O)C2CC(CCC)CN2C)C(C)Cl)C(O)C1O (centres undefined) in the records?
Found: 0.98

Lookup: Which value of normalized growth has been reported for CC(C)(Oc1ccc(C2CC2(Cl)Cl)cc1)C(=O)O (centres undefined) in the records?
Found: 1.02

Lookup: Which value of normalized growth has been reported for COC(=O)C(C)c1ccc(C(=O)c2cccs2)cc1 (centres undefined) in the records?
Found: 1.01

Lookup: Which value of normalized growth has been reported for `O=c1cc[nH]c(=S)[nH]1` in the records?
Found: 1

Lookup: Which value of normalized growth has been reported for O=C1CC2OCC=C3CN4CC[C@]56c7ccccc7N1C5[C@H]2[C@H]3CC46 (some centres undefined) in the records?
Found: 1.02

----------
assay: chemical genetic growth profiling, strain panel (AID 1159580); details: S. cerevisiae deletion strains, growth OD, locus YNL298W, strain CLA4 (second series), active compounds read low
Screen size: about 5,500 compounds; about 2,000 (36%) were called active. Another 18% or so got no clear call; they are omitted. The list shows a part of the results.
Collected normalized growth values appear next to each entry.

In the examples that follow, each entry is paired with its recorded normalized growth.
COC(=O)c1sccc1NC(=O)C1CC1 : 1 (inactive)
COC(=O)c1sccc1-c1ccc(C(C)=O)o1 : 0.841 (inactive)
O=C(c1ccccc1)c1cc2c(cc1Br)OCCO2 : 0.7 (active)
CC12NC(=O)NC1(C)NC(=O)N2 (stereo unspecified) : 1.05 (inactive)
Nc1cc2c(cc1Cl)C(=O)NC2=O : 1.03 (inactive)
Cc1ccc(-n2cccc2)c(NC(=S)Nc2ccc(Br)cc2OC(F)(F)F)c1 : 0.757 (active)
CCCc1cnc(N2CCCN(C(=S)Nc3cccnc3)CC2)nc1 : 0.999 (inactive)
N#CC(C#N)=Cc1ccc(-c2cc(C(F)(F)F)ccc2Cl)o1 : 0.923 (inactive)

Lookup: Which value of normalized growth has been reported for `N#Cc1c(F)cccc1Oc1ccc(F)cc1` in the records?
Found: 0.928 (inactive)

----------
assay: chemical genetic growth profiling, strain panel (AID 1159580); conditions: S. cerevisiae deletion strains, growth OD, locus YOL012C, strain htz1
In all, about 5,500 compounds went through this assay and about 2,000 (36%) were called active. Roughly 18% stayed inconclusive and do not appear here. The list shows a part of the results.
Collected normalized growth values appear next to each entry.
Enter the number alone.

CCCCOC(=O)c1ccccc1C(=O)OCc1ccccc1 : 0.742
CC1OC1P(=O)(O)O (stereo unspecified) : 1.02
O=C(C1CCCCC1)N1CC(=O)N2CCc3ccccc3C2C1 (stereo unspecified) : 0.872
COC(=O)[C@@H]1OC(=O)[C@H]2O[C@@]23[C@@]1(C)CCC1[C@@]2(C)CCC(=O)C(C)(C)C2C[C@@H](OC(C)=O)[C@]13C (stereo partly specified) : 1.17
CCCCOC(=O)c1ccc(N)cc1 : 0.742
COc1cc2c(cc1OC)C1Cc3ccc(OC)c(OC)c3CN1CC2 (stereo unspecified) : 0.904

Note: attention shifts to another entry.
Lookup: Which value of normalized growth has been reported for NS(=O)(=O)c1cc2c(cc1Cl)NC(C(Cl)Cl)NS2(=O)=O (stereo unspecified) in the records?
Found: 0.822

----------
experiment: chemical genetic growth profiling, strain panel (AID 1159580);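 also: tested at 20 µM; growth read once vehicle control cultures reached saturation at 30 °C; 1 = growth at the plate median or of vehicle wells; lower values mean less growth of the strain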; conditions: S. cerevisiae deletion strains, growth OD, locus YPL204W, strain HRR25, active compounds read low
Among all 5,500 compounds or so, about 2,000 (36%) were called active. Inconclusive results (about 18%) are left out. This is one part of the list.
OBSERVABLE: normalized growth
Enter the number alone.

In the examples that follow, each entry is paired with its recorded normalized growth.
O=C(NNc1ccc(I)cc1)c1cc(Cl)cc(Cl)c1 : 0.832
N#CC(C#N)=Cc1ccc(-c2ccccc2C(F)(F)F)o1 : 0.88
CCc1ccn2cc(Nc3ccccc3Cl)nc2c1 : 0.921

Note: attention shifts to another entry.
Lookup: Which value of normalized growth has been reported for `Cc1c(-c2ccnn2C(=O)c2ccco2)cnn1-c1ccccc1` in the records?
Found: 0.851

----------
assay: chemical genetic growth profiling, strain panel (AID 1159580);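 also: tested at 20 µM; growth read once vehicle control cultures reached saturation at 30 °C; 1 = growth at the plate median or of vehicle wells; lower values mean less growth of the strain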; settings: S. cerevisiae deletion strains, growth OD, locus YOR080W, strain dia2, active compounds read low
Out of some 5,500 compounds screened, about 2,000 (36%) were called active. Roughly 18% stayed inconclusive and do not appear here. Some of the results follow.
OBSERVABLE: normalized growth
Enter the number alone.

In the examples that follow, each entry is paired with its recorded normalized growth.
CC(C)C(C)/C=C/C(C)C1CCC2C3=CC=C4CC(O)CCC4(C)C3CCC21C (stereo unspecified) : 1.02
CC1OC1P(=O)(O)O (stereo unspecified) : 1
CC(C)C(C)/C=C/C(C)[C@H]1CCC2C3=CCC4CC(=O)CC[C@]4(C)C3CC[C@@]21C (stereo partly specified) : 1
C=CC(N)CCC(=O)O (stereo unspecified) : 0.974
CC1(C)O[C@H]2[C@H](O)C[C@](O)(C(N)=O)C[C@H]2O1 : 1.01

Note: attention shifts to another entry.
Lookup: Which value of normalized growth has been reported for `O=c1cc[nH]c(=S)[nH]1` in the records?
Found: 1

----------
Collected normalized growth values appear next to each entry.
experiment: chemical genetic growth profiling, strain panel (AID 1159580);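 also: tested at 20 µM; growth read once vehicle control cultures reached saturation at 30 °C; 1 = growth at the plate median or of vehicle wells; lower values mean less growth of the strain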; details: S. cerevisiae deletion strains, growth OD, locus YKL193C, strain SDS22, active compounds read low
Among all 5,500 compounds or so, about 2,000 (36%) were called active. Roughly 18% stayed inconclusive and do not appear here. The list shows a part of the results.
Enter the number alone.

O=C(NNc1ccc(I)cc1)c1cc(Cl)cc(Cl)c1 : 0.96
Cc1ccc(NS(=O)(=O)c2ccc(Cl)cc2)c(N=Cc2cc(Cl)cc(Cl)c2O)c1 : 0.968
O=[N+]([O-])c1ccc2oc(C(O)c3ccc(-c4ccccc4)cc3)cc2c1 (stereo not given) : 0.98

Lookup: Which value of normalized growth has been reported for `O=C(Nc1ccc(OC(F)(F)F)cc1)N1CCN(c2nc(-c3ccccc3)ns2)CC1` in the records?
Found: 0.987

Lookup: Which value of normalized growth has been reported for `Cc1cccc(NC(=S)NNC(=O)CSCc2cccc3ccccc23)c1` in the records?
Found: 0.989

Lookup: Which value of normalized growth has been reported for `Cc1nc(-c2ccc(S(=O)(=O)Nc3ccc(Br)cc3Cl)s2)cs1` in the records?
Found: 0.942

Values compiled from PubChem BioAssay AID1159580.
